System: Notch signalling
Test: Notch reporter assay (12xCSL firefly luciferase / renilla luciferase, HEK293T Notch1ΔE reporter cell line clone #A1-11)
Assay type: cell-based
Conditions: Homo sapiens, HEK-293T, 14p Notch assay DR; log10 value; bottom constrained to Emax of positive control DAPT; read-out: approximated LogIC50 (converted)
observed property: IC50 (µM)

Example entries begin here.
[
  {
    "molecule": "Cc1ccc(-c2noc([C@@H]3Cc4[nH]cnc4CN3C(=O)CCC(=O)O)n2)cc1",
    "target entity": "Notch signalling",
    "unit descriptor": "µM",
    "IC50": 3.16
  },
  {
    "molecule": "COc1ccc2[nH]c3c(c2c1)CCOC31CCN(Cc2ccccc2-c2ccccc2)CC1",
    "target entity": "Notch signalling",
    "unit descriptor": "µM",
    "IC50": 1.26
  },
  {
    "molecule": "Cc1ccccc1CN1CCC2(CC1)OCCc1c2[nH]c2ccc(F)cc12",
    "target entity": "Notch signalling",
    "unit descriptor": "µM",
    "IC50": 7.94
  },
  {
    "molecule": "CCOc1ccccc1-c1ccccc1NC(=O)c1ccc2c(c1)ncn2C1CC1",
    "target entity": "Notch signalling",
    "unit descriptor": "µM",
    "IC50": 5.01
  },
  {
    "molecule": "O=C(Nc1nnc(-c2ccc3c(c2)OCCO3)o1)c1ccccc1F",
    "target entity": "Notch signalling",
    "unit descriptor": "µM",
    "IC50": 3.16
  }
]

[I] Cc1[nH]c2cccc(C(=O)N3CCCCC3CCNC(=O)c3ccccc3)c2c1C (stereo not shown)
[II] Cc1ccccc1Nc1nc(N)nc(CN2CCCC(C(F)(F)F)C2)n1 (stereo not shown)
Problem: Returns the identifier with the smallest measured IC50 among I and II . Write down the label of the entry you select.
Solution: I

[I] CC(=O)Oc1cccc(N2C(=O)c3ccc(Oc4cccc(N)c4)cc3C2=O)c1
[II] COc1cc(-c2cn3ccnc3c(Nc3ccccc3)n2)cc(OC)c1OC
[III] CCc1c(C(=O)N(C)Cc2cnn(C(C)C)c2)[nH]c2ccccc12
[IV] COc1cc(Nc2cncc(-c3cccc(N)c3)n2)cc(OC)c1OC
Problem: Please put the entries in order of rising IC50. Provide the labels, sequenced as the question asks.
Solution: I, III, IV, II

[1] COc1cccc(CNc2ccc(N3CCOCC3)cc2)c1OCc1ccccc1F
[2] COc1ccc(C(=O)N2Cc3nc[nH]c3C[C@H]2c2nc(-c3ccc(OC)cc3)no2)cc1
Problem: Select one: 1 or 2 . Criterion: greater recorded IC50. Write down the label of the entry you select.
Solution: 2

---

Biological target: γ-secretase complex (Homo sapiens)
Assay: APP-C99 counter assay (GSI reporter assay)
Type: cell-based
Settings: 24 h; 10µM; APP-C99 counter assay; read-out: 3p-DR in % of DMSO counter
observed property: remaining activity at 10 µM (%)

Example entries begin here.
[
  {
    "molecule": "Cc1nn(-c2nc3ccccc3s2)c(O)c1C1OC(=O)c2ccccc21 (stereo not drawn) [compound E]",
    "target entity": "γ-secretase complex (Homo sapiens)",
    "remaining activity at 10 µM / %": 80.7
  },
  {
    "molecule": "COc1cc(Nc2nc(-c3cccc(NC(C)=O)c3)cn3ccnc23)cc(OC)c1OC [CBK038093]",
    "target entity": "γ-secretase complex (Homo sapiens)",
    "remaining activity at 10 µM / %": 180
  },
  {
    "molecule": "Cc1ccc2[nH]c3c(c2c1)CCOC31CCN(Cc2ccccc2-c2ccccc2)CC1 [compound B]",
    "target entity": "γ-secretase complex (Homo sapiens)",
    "remaining activity at 10 µM / %": 113
  },
  {
    "molecule": "NC(=O)c1c(NC(=O)NCc2cccnc2)sc2c1CCC2 [compound D]",
    "target entity": "γ-secretase complex (Homo sapiens)",
    "remaining activity at 10 µM / %": 119
  }
]

[1] CC(=O)N1CCc2sccc2C1c1ccccc1NCc1ccoc1 (stereo not drawn) [CBK286432]
[2] CC(=O)Oc1cccc(N2C(=O)c3ccc(Oc4cccc(N)c4)cc3C2=O)c1 [CBK261099]
Problem: Select one: 1 or 2 . Criterion: greater recorded remaining activity at 10 µM. Write down the label of the entry you select.
Solution: 1
(1: 152%, 2: 80.5%)
